Measured values drawn from patent US20240023534A1 for this set.

Experiment: Gravimetric release rate and longevity of lure constituents in LDPE sachets
Assay type: physicochemical
Test parameters: compound on wick in LDPE sachet; thickness, size, load per Table 1
In this section, each of the compounds is paired with its reported Release rate.
Supply the numeric figure in mg/day, leaving out any unit text.

Input line: Given the compound CC(C)CCO [Isopentyl alcohol] , what is its reported Release rate?
Output line: 3.4

Input line: Given the compound CCOC(C)=O [ethyl acetate] , what is its reported Release rate?
Output line: 136

Input line: Given the compound CC(C)CO [Isobutyl alcohol] , what is its reported Release rate?
Output line: 4.9

Input line: Given the compound CCC(C)CO (centres unmarked) [2-methyl-butanol] , what is its reported Release rate?
Output line: 4.3

Input line: Given the compound CC=O [acetaldehyde] , what is its reported Release rate?
Output line: 50
